Listing: melting point of selected compounds
METRIC: melting point

COMPOUND | EXPERIMENTAL VALUE
CC1(C)C=Cc2c(ccc3c(=O)c(-c4ccc(B5OC(C)(C)C(C)(C)O5)cc4)coc23)O1 [compound 8] | 228 to 230 °C
C#CCOc1ccc2c(=O)c(-c3ccc(O)cc3)coc2c1 [compound 6] | 228 to 230 °C
CC1(C)C=Cc2c(ccc3c(=O)c(-c4ccc(O)cc4)coc23)O1 [compound 3] | 262 to 264 °C
CC1(C)CCc2c(ccc3c2OCC(c2ccc(O)cc2)C3=O)O1 (stereo not shown) [compound 4] | 176 to 180 °C

###

The following compounds are shown together with reported osteogenesis averaged over all three donors, relative to vehicle treated MSCs values.
system: Human bone marrow derived mesenchymal stem cells (MSCs); assay: Osteogenic differentiation of MSCs (Alizarin Red calcium deposition); conditions: three donors; 1 μM; 14 days
METRIC: osteogenesis averaged over all three donors, relative to vehicle treated MSCs

COMPOUND | EXPERIMENTAL VALUE
O=c1c(-c2ccc(O)cc2)coc2cc(OC3CCCC3)ccc12 | 2.0
CC1(C)C=Cc2cc3c(cc2O1)OCC(c1ccc(O)cc1)C3 (stereo not shown) | 2.2
CCCCCCOc1ccc2c(=O)c(-c3ccc(O)cc3)coc2c1 | 2.0
CC(C)COc1ccc2c(=O)c(-c3ccc(O)cc3)coc2c1 | 1.8
C=CCOc1ccc2c(=O)c(-c3ccc(O)cc3)coc2c1 | 2.0
CCCCOc1ccc2c(=O)c(-c3ccc(O)cc3)coc2c1 | 2.3
CC(C)Oc1ccc2c(=O)c(-c3ccc(O)cc3)coc2c1 | 2.0
